Target: ARID3A (Homo sapiens)
Construct: recombinant human protein immobilised on CM5 chip
Sequence (Q99856 1-593): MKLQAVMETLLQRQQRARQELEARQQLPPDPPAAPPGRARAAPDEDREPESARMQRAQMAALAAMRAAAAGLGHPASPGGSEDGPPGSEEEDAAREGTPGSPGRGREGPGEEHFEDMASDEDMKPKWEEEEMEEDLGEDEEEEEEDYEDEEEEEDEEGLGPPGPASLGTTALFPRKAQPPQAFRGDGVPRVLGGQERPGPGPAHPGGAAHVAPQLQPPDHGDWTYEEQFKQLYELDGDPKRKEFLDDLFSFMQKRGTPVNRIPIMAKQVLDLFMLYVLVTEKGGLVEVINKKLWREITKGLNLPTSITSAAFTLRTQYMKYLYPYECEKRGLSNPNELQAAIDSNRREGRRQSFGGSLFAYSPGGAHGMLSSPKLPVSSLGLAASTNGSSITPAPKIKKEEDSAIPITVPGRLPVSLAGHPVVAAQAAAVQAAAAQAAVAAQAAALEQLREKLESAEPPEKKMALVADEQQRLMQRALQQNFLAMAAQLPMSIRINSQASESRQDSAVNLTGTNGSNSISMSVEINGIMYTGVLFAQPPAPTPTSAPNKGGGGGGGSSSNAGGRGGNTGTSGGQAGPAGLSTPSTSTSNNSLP
Test: SPR (Biacore T200, CM5 chip, kinetic analysis)
OBSERVED_PROPERTY: Kd (µM)
Hi! Could you send only the number? It should be in µM, unit omitted.

Give Kd for the following molecule: C=C(CC(=O)OCCCCCCCC)C(=O)O [4‐OI, 4‐octyl itaconate] 7.64
